# System: U251 CNS
Outcomes: active, inactive

[[record]]
compound = "CCCCCCCCCCCCCCCC(=O)OCC1OC(OCCCC)[C@H](O[C@@H]2OC(C)C(OC(=O)CCC)C(O)C2O)C(O)C1O (some centres not stated)"
assigned_category = "inactive"

[[record]]
compound = "CC(=O)[CH-]C(=O)c1ccccc1.CC(=O)[CH-]C(=O)c1ccccc1.CC(=O)[CH-]C(=O)c1ccccc1.[Cl-].[Hf+4]"
assigned_category = "inactive"

[[record]]
compound = "[CH3][Ge]([CH3])([CH2]CC#N)[S]c1ccccc1"
assigned_category = "inactive"

[[record]]
compound = "CCN(CC)CCOc1ccc2c(-c3ccccc3)c(-c3ccc(OC)cc3)c(=O)oc2c1"
assigned_category = "inactive"

[[record]]
compound = "CCN(CC)CCN1C(=O)c2c(c3c4cccc(Cl)c4n(C4OC(CO)C(OC)C(O)C4O)c3c3[nH]c4c(Cl)cccc4c23)C1=O (configuration not stated)"
assigned_category = "active"

[[record]]
compound = "Cc1ccc2c(-c3ccnc(Nc4cccc(C(F)(F)F)c4)n3)c(-c3ccccc3)nn2n1"
assigned_category = "inactive"

[[record]]
compound = "Cc1ccc(/C=C(/C#N)n2nnc3cccc(F)c32)cc1"
assigned_category = "inactive"

[[record]]
compound = "CC(C)(Oc1cccc(N2CCC[C@@H](C(=O)N(Cc3ccc(-c4cn[nH]c4)cc3)C3CC3)C2)c1)C(=O)N1CCNCC1"
assigned_category = "inactive"

[[record]]
compound = "Cc1cc2c3c(nc4ccccc42)C(=O)c2cccnc2-c3n1"
assigned_category = "active"

[[record]]
compound = "CC(=O)CCC[C@@H](C)[C@@H]1O[C@H]([C@@]2(C)CCC(=O)O2)CC2[C@H]1OC(=O)C21CC1 (some centres not stated)"
assigned_category = "inactive"

[[record]]
compound = "N=C1C(c2nc3ccccc3c(=O)[nH]2)=C(O)CN1c1cccc(Cl)c1"
assigned_category = "inactive"

[[record]]
compound = "O=C(NNC1=NS(=O)(=O)c2ccccc2N1c1ccccc1)c1cnccn1"
assigned_category = "inactive"

